# target_of_assay: EML4-ALK (Homo sapiens)
# Construct: endogenous in cells; host or cells: H3122 (NSCLC), single-cell clone after CRISPR knock-in of HiBit; the other entry of the earlier key: EML4 (Q9HC35, Echinoderm microtubule-associated protein-like 4)
# Sequence (Q9UM73 with tags, fused parts or gaps): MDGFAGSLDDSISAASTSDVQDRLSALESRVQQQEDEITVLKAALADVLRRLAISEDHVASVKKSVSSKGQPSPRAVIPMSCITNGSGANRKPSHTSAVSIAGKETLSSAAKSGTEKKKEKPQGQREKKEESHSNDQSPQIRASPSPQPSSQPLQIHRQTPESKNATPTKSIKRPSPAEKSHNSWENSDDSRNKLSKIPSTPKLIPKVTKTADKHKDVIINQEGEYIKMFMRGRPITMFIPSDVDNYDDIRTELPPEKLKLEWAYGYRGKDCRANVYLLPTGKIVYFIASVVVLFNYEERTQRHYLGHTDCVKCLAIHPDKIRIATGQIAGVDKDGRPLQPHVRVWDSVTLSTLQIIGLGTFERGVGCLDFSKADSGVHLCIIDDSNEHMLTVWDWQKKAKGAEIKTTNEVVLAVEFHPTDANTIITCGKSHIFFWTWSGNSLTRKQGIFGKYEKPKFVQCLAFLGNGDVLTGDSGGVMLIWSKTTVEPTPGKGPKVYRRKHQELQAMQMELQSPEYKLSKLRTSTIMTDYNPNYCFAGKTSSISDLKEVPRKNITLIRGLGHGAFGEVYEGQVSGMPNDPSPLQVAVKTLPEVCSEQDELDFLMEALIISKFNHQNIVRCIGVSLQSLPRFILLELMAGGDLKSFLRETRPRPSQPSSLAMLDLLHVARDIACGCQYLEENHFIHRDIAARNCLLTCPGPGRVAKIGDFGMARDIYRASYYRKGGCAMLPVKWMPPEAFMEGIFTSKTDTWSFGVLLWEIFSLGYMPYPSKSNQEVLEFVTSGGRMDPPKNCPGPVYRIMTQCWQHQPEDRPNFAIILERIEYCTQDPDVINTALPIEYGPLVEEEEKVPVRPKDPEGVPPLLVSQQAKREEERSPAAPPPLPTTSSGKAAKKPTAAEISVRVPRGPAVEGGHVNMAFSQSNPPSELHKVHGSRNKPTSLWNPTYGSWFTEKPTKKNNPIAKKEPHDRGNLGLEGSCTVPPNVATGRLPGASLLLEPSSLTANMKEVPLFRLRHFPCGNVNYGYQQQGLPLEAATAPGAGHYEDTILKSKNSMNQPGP
# assay_notes: EML4-ALK HiBit degradation assay in CRISPR-tagged H3122 cells (Nano-Glo HiBit Lytic Detection)
# Format: cell-based
# condition_set: Table 2, first DC50 column; H3122 EML4-ALK-HiBit, 16 hours; read-out: Degradation DC50
# Method: NSCLC cell line H3122 was subjected to CRISPR to express EML4-ALK with HiBit-tag on its c-terminal. Single-cell clone was selected and expanded for the following assays that monitor endogenous EML4-ALK level in high throughput manner. […] HiBit signal was assessed using Nano-Glo® HiBit Lytic Detection System (Promega™). […] NSCLC cell line H3122 was subjected to CRISPR to express EML4-ALK with HiBit-tag on its c-terminus. […] HiBit signal was assessed using Nano-Glo® HiBit Lytic Detection System (Promega™). […]
Values of DC50 strictly less than 4 µM map to MET, and values of at least 4 µM map to NOT MET.

molecule	assigned_label
COc1cc(CCNCCCC(=O)N[C@H](C(=O)N2C[C@H](O)C[C@H]2C(=O)N[C@@H](C)c2ccc(-c3scnc3C)cc2)C(C)(C)C)c(C)cc1Nc1ncc(Cl)c(Nc2ccccc2P(C)(C)=O)n1	NOT MET
CC[C@@H](NC(=O)[C@@H]1C[C@H](NC(=O)CCCCCCC(=O)N(C)CCc2cc(OC)c(Nc3ncc(Cl)c(Nc4ccccc4P(C)(C)=O)n3)cc2C)CN1C(=O)[C@@H](NC(=O)[C@H](C)NC)C(C)(C)C)c1ccccc1	MET
COc1cc(CCN(C)C(=O)CCCCCC#Cc2cccc3c2C(=O)N(C2CCC(=O)NC2=O)C3=O)c(C)cc1Nc1ncc(Cl)c(Nc2ccccc2P(C)(C)=O)n1 (stereo not drawn)	NOT MET
COc1cc(CCN(C)C(=O)CCCCCCCCNC(=O)COc2cccc3c2C(=O)N(C2CCC(=O)NC2=O)C3=O)c(C)cc1Nc1ncc(Cl)c(Nc2ccccc2P(C)(C)=O)n1 (stereo not drawn)	MET
COc1cc(CCN(C)C(=O)CCCCCNc2cccc3c2C(=O)N(C2CCC(=O)NC2=O)C3=O)c(C)cc1Nc1ncc(Cl)c(Nc2ccccc2P(C)(C)=O)n1 (stereo not drawn)	MET
COc1cc(CCN(C)C(=O)CCCCCCCCNc2cccc3c2C(=O)N(C2CCC(=O)NC2=O)C3=O)c(C)cc1Nc1ncc(Cl)c(Nc2ccccc2P(C)(C)=O)n1 (stereo not drawn)	MET
COc1cc(CCNCCCCCSC(C)(C)C(NC(C)=O)C(=O)N2C[C@H](O)C[C@H]2C(=O)N[C@@H](C)c2ccc(-c3scnc3C)cc2)c(C)cc1Nc1ncc(Cl)c(Nc2ccccc2P(C)(C)=O)n1 (stereo partly drawn)	MET
COc1cc(CCN(C)C(=O)CCCC#Cc2cccc3c2C(=O)N(C2CCC(=O)NC2=O)C3=O)c(C)cc1Nc1ncc(Cl)c(Nc2ccccc2P(C)(C)=O)n1 (stereo not drawn)	NOT MET
COc1cc(CCN(C)C(=O)CCOCCC(=O)N[C@H](C(=O)N2C[C@H](O)C[C@H]2C(=O)N[C@@H](C)c2ccc(-c3scnc3C)cc2)C(C)(C)C)c(C)cc1Nc1ncc(Cl)c(Nc2ccccc2P(C)(C)=O)n1	MET
CC[C@@H](NC(=O)[C@@H]1C[C@H](NC(=O)CCCCCCCC(=O)N(C)CCc2cc(OC)c(Nc3ncc(Cl)c(Nc4ccccc4P(C)(C)=O)n3)cc2C)CN1C(=O)[C@@H](NC(=O)[C@H](C)NC)C(C)(C)C)c1ccccc1	MET
COc1cc(CCN(C)C(=O)CCCNC(=O)COc2cccc3c2C(=O)N(C2CCC(=O)NC2=O)C3=O)c(C)cc1Nc1ncc(Cl)c(Nc2ccccc2P(C)(C)=O)n1 (stereo not drawn)	NOT MET

Source listed as patent US20230158157A1.
